B1: ZNF263 (parent)
chain: PEASHLRFRRFRFQEAAGPREALS

- Variants of: B1
- TEST_METHOD_NOTES: protein stability index of a GFP-peptide fusion (GPS, HEK-293T) (PSI 1-6); higher = more stable;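 further: lentivirally expressed fusions sorted by FACS into six bins by GFP to DsRed ratio, PSI derived from sequencing read proportions per bin multiplied by bin number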
- CONDITION_LABEL: c terminus: a fixed tail appended
Some variants, each annotated with its measured protein stability index.
METRIC_NAME: protein stability index

VARIANT_KEY	RESULT_NUMBER
R9W	1.62
P1C	1.96
A17T	2.61
A22C	2.65
L6G	3.46
P19H	2.73
E2M	1.75
Q14D	4.9
R10K	2.65
E15G	2.24
S24W	2.37
R10D	3.29
Q14S	2.87
F8A	3.28
R7L	2.08
P19K	2.73
R20V	2.65
Q14R	2.59
R10W	3.23
P19R	2.71
R9T	3.32
A3V	1.73
R10H	2.27
F11T	4.16
R12G	3.28
A16K	2.61
A3S	2.59
A22I	2.28
P1F	3.44
E2A	2.88
R7F	2.28
A17F	1.88
Q14G	3.68
E2W	1.52
R9L	2.8
R7E	3.26
F11R	4.91
R7K	2.92
R20Q	2.7
A22P	3.7
A3M	3.55
P1L	2.53
F13M	3.59
R20K	2.38
R10Y	1.91
R7D	2.78
R12V	3.61
R10T	2.93
P19M	2.8
A17H	2.33
P1I	2.71
A17M	2.1
R10E	2.68
F11H	4.01
R12H	3.14
G18L	2.21
R12W	2.56
E2N	2.52
G18Y	2.14
A17I	2.15
A17E	3.34
E21C	2.14
F11M	3.61
A16T	2.11
P19T	3.26
G18M	2.7
S4Y	2.83
R10F	1.79
E2Q	2.11
E15I	1.78
F11A	3.25
A16W	2.65
A17Q	2.75
R9S	3.8
R20G	2.25
F8W	1.94
A3E	2.82
H5C	2.55
F13A	3.97
L6F	2.75
L23V	2.93
E2G	2.12
Q14W	2.87
S4T	2.76
P1N	2.13
A17N	2.78
P1S	3.74
F11Y	2.76
R20D	2.9
R12T	3.59
E21N	2.71
